The origin of these recorded values is PubChem BioAssay (NCI).

Tested on: COLO 205 colon
Assay: NCI tumour cell line growth inhibition, 48 h; in the data active = GI50 below about 0.43 µM; inactive = the rest
Permitted responses: active, inactive

Cc1ccc(-c2nc(N3CCCNCC3)c3oc(-c4ccccc4)nc3n2)cc1    inactive
COc1ccc(-c2c(-c3cc(OC)c(OC)c(OC)c3)noc2N)cc1    active
C=C(C)[C@@H]1CC[C@]2(CO)CC[C@]3(C)[C@H](CC[C@@H]4[C@@]5(C)CCC(NCCc6ccc(O)cc6)C(C)(C)[C@@H]5CC[C@]43C)[C@@H]12 (stereo not given in full)    inactive
c1ccc(CN=C(NCc2ccccc2)NCc2ccccc2)cc1    inactive
CN(C)CCOC(c1ccccc1)c1ccccc1    inactive

What call does the record list for Cc1ncsc1-c1ccc(CNC(=O)[C@@H]2C[C@@H](O)CN2C(=O)[C@@H](NC(=O)C2(C#N)CC2)C(C)(C)C)cc1 ? inactive

What call does the record list for OCC1OC(n2cnc3c(Cl)nc(Cl)cc32)C(O)C1O (stereo not given) ? inactive

What call does the record list for C[C@H]1[C@H]2[C@H]3CC[C@@H]4[C@@]5(C)C/C(=C/c6cccnc6)C(=O)C(C)(C)[C@@H]5CC[C@@]4(C)[C@]3(C)CC[C@]23CO[C@]1(C)[C@@H](C(=O)/C=C\c1cccnc1)C3 ? inactive

What call does the record list for COc1cc(OC)c(NC(=O)c2cc3ccccc3cc2O)cc1Cl ? inactive

What call does the record list for O=S(=O)(Nc1cc(Cl)ccc1Cl)c1ccc(-c2cnc(C3CC3)o2)cc1 ? inactive
